Each recorded value in this set is attributed to the supplement of paper PMC10126150.

The reader will find reported switch fluorescence ratio values listed item by item below.
# Test system: ATP;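 note: ATP exposure 15 min at 22 °C before imaging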
# assayMethodText: switch fluorescence ratio, 500 uM ATP over buffer (Cy3 cluster intensity, sum of 5 cycles each) (fold (ratio)); higher = stronger signal-on switching upon ATP binding; sequences stand for … in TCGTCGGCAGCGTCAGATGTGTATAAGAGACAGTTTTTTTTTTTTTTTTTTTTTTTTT…TC
# settings: aptamer strand: ATP DNA aptamer (quencher-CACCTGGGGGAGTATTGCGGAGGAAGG + anchor), 100 nM annealed; ATP concentration: 500 uM
Give your answer as a number; write no unit.

# chainSequence, quantitativeResult
rows = [
    ("ATAATTGGGA", 0.99),
    ("TGGATGTGGC", 0.963),
]

Enquiry: Let me know recorded switch fluorescence ratio for GAGCAAAAAG , thanks.
Return: 1.05

Enquiry: Let me know recorded switch fluorescence ratio for TTTTAGGAGC , thanks.
Return: 0.985

Enquiry: Let me know recorded switch fluorescence ratio for TTATAGGGGT , thanks.
Return: 1.09

Enquiry: Let me know recorded switch fluorescence ratio for AGGGTAGCGA , thanks.
Return: 1.03

Enquiry: Let me know recorded switch fluorescence ratio for TAGAAGCCGG , thanks.
Return: 0.989

Enquiry: Let me know recorded switch fluorescence ratio for ACGTGGGGGA , thanks.
Return: 1.02

Enquiry: Let me know recorded switch fluorescence ratio for AGGAGGGGTC , thanks.
Return: 1.01

Enquiry: Let me know recorded switch fluorescence ratio for TTTTTGGCTT , thanks.
Return: 1.02
